Test system: bedstraw
Assay: Test B pre/postemergence bedstraw
Format: in vivo, Galium aparine
Conditions: Preemergence, Rate 500 g/ha; scale of 0 to 10 where 0 is no effect and 10 is complete control
Description: […] At the same time, these crop and weed species were also treated with postemergence applications of test chemicals formulated in the same manner. […] Treated plants and controls were maintained in a greenhouse for twelve to sixteen days, after which all species were compared to controls and visually evaluated. […]
The compounds listed here are annotated with their Bedstraw plant response rating.
Please reply with the value in numeric form only.

Recorded Bedstraw plant response rating, per entry:
molecular_string: CCCCCCn1c(=O)on(C(=O)N(c2ccccc2)C(C)C)c1=O
Bedstraw plant response rating: 0
--
molecular_string: CC(C)N(C(=O)n1oc(=O)n(C2CC2)c1=O)c1ccc(F)cc1F
Bedstraw plant response rating: 10
--
molecular_string: CCOP(=O)(Cn1c(=O)on(C(=O)N(c2ccc(F)cc2)C(C)C)c1=O)OCC
Bedstraw plant response rating: 2
--
molecular_string: CC(C)N(C(=O)n1oc(=O)n(C2CCCCCC2)c1=O)c1ccc(F)cc1
Bedstraw plant response rating: 5
--
molecular_string: CC(C)N(C(=O)n1oc(=O)n(CCC(F)(F)F)c1=O)c1ccc(Cl)cc1
Bedstraw plant response rating: 0

// query Identify the measured Bedstraw plant response rating of COCCOCn1c(=O)on(C(=O)N(c2ccccc2)C(C)C)c1=O for bedstraw.
// result 0

###

Wild oats plant response rating: recorded values
System: wild oat
Assay: Test B pre/postemergence wild oat
Type: in vivo, Avena fatua
Settings: Rate 62 g/ha, Preemergence; scale 0 to 10

Illustrative cases are given below, each with its answer.
compound: CC(C)N(C(=O)n1oc(=O)n(CC2=NOCCO2)c1=O)c1ccc(F)cc1F [Compound 758]
subject_of_test: wild oat
Wild oats plant response rating: 5
//
compound: CC(C)N(C(=O)n1oc(=O)n(C(C)C2=NOCC2)c1=O)c1ccc(Cl)cc1 (racemic) [Compound 759]
subject_of_test: wild oat
Wild oats plant response rating: 0
//
compound: CC(C)N(C(=O)n1oc(=O)n(CC2=NOCCO2)c1=O)c1ccc(F)cc1 [Compound 765]
subject_of_test: wild oat
Wild oats plant response rating: 4
//
compound: CC(C)N(C(=O)n1oc(=O)n(CCCCl)c1=O)c1ccccc1 [Compound 750]
subject_of_test: wild oat
Wild oats plant response rating: 0

Proceed to the following item.
// query Which measured Wild oats plant response rating value corresponds to COc1ccc(N(C(=O)n2oc(=O)n(C(C)C)c2=O)C(C)C)cc1 [Compound 780] ?
// result 0

###

In this section, each of the compounds is paired with its reported Plant response rating, Giant foxtail.
System: giant foxtail
Test: Test B pre/postemergence giant foxtail
Assay type: in vivo, Setaria faberii
Settings: Rate 250 g/ha, Postemergence; scale of 0 to 10 where 0 is no effect and 10 is complete control
API doc: respond with a numeric literal and nothing else, no unit.

Illustrative cases are given below, each with its answer.
compound: CC(C)N(C(=O)n1oc(=O)n(CC(C)(C)C)c1=O)c1ccccc1 [Compound 276]
Plant response rating, Giant foxtail: 4
--
compound: CCCCn1c(=O)on(C(=O)N(c2ccc(Cl)cc2)C(C)C)c1=O [Compound 527]
Plant response rating, Giant foxtail: 8
--
compound: COCn1c(=O)on(C(=O)N(c2ccccc2)C(C)C)c1=O [Compound 562]
Plant response rating, Giant foxtail: 8

// query Recorded Plant response rating, Giant foxtail for COCC(C)N(C(=O)n1oc(=O)n(-c2ccccc2C)c1=O)c1ccc(F)cc1 (stereo not drawn) [Compound 324] with giant foxtail, please?
// result 0

// query Reported Plant response rating, Giant foxtail for giant foxtail, given CC(Cl)=CCn1c(=O)on(C(=O)N(c2ccc(F)cc2)C(C)C)c1=O [Compound 285] ?
// result 0

// query Hi! What's the reported Plant response rating, Giant foxtail for CC(C)N(C(=O)n1oc(=O)n(C2CC2)c1=O)c1ccc(F)cc1F [Compound 299] on giant foxtail?
// result 8

The measurements presented in this section are drawn from patent US6737383B1.
